From: patent US20240228463A1

# MEASURED_ON: hNaV1.7 (Homo sapiens, UniProt Q15858)
# Construct: expressed in transfected cells
# Sequence (Q15858 1-1977 isoform Q15858-3): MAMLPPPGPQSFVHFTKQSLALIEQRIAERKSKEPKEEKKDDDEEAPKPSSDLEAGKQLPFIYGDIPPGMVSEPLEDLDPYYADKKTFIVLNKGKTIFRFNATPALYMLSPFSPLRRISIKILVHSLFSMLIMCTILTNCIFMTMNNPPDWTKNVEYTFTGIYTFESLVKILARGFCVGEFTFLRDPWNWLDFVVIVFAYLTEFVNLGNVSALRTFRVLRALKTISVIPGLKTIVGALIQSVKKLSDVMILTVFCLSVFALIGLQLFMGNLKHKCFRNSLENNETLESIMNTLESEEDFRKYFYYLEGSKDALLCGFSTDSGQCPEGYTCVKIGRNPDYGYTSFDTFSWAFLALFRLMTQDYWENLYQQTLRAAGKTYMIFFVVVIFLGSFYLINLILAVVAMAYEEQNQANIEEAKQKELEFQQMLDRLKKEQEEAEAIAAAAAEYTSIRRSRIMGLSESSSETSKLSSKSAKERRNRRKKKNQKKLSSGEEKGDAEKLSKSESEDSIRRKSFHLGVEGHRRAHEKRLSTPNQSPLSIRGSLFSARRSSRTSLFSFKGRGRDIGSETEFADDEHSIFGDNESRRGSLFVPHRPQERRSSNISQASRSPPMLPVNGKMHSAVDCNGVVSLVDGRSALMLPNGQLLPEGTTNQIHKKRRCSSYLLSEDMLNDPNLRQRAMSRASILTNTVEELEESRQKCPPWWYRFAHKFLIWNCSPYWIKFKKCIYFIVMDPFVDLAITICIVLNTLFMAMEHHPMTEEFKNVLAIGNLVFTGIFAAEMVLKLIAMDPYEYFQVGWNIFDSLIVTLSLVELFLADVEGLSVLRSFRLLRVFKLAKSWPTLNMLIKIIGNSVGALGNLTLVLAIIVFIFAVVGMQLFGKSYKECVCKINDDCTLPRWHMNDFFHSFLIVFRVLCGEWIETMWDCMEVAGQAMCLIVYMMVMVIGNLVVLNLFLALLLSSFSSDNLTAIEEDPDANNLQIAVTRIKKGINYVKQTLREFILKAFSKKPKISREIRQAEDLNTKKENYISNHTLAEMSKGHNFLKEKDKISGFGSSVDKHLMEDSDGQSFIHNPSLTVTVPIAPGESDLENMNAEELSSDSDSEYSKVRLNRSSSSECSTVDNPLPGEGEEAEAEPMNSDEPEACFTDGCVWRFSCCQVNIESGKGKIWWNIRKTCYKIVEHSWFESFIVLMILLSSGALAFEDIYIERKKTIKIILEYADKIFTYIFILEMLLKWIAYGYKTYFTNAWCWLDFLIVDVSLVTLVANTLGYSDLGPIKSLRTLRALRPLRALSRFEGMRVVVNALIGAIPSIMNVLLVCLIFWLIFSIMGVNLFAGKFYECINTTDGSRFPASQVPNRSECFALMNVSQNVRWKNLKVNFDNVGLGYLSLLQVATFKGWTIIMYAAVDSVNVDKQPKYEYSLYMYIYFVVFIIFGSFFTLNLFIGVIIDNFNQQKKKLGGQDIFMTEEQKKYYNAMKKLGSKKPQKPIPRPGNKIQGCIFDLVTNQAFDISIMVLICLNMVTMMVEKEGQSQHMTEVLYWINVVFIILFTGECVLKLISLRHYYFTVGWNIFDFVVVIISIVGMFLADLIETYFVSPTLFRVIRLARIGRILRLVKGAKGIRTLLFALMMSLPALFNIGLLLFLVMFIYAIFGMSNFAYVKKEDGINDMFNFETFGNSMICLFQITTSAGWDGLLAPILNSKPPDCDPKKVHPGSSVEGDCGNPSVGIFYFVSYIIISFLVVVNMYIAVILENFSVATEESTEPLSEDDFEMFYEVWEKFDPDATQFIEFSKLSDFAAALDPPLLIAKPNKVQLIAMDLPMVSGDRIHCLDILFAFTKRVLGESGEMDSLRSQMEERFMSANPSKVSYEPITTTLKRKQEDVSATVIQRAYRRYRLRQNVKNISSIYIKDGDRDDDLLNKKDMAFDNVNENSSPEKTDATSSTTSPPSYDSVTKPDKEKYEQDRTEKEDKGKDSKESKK
# ASSAY_TEXT: Patch voltage clamp electrophysiology (EP), Syncropatch 384PE, Nav1.7 in CHO cells
# Format: cell-based
# ASSAY_CONDITIONS: holding potential −50 mV, inhibition based on 7.5 min compound incubation, read-out: hNaV1.7 EP_SP
Recorded IC50 by entry
Write the value in nM as a bare number.

>>> endpoint_value("NC[C@H]1CCCN(S(=O)(=O)NC(=O)c2cc(Cl)c(OCC3CCCC3)cc2F)C1 (single isomer, unassigned) [Example 27, 2,2,2-trifluoroacetate]")
90
>>> endpoint_value("O=C(NS(=O)(=O)c1ccc2c(c1)OCCCO2)c1cc(Cl)c(OCC2CCCC2)cc1F")
710
>>> endpoint_value("O=C(NS(=O)(=O)c1cc(Cl)ccc1F)c1cc(Cl)c(OCC2CCCC2)cc1F")
700
>>> endpoint_value("O=C(NS(=O)(=O)N1CCC(OC2CNC2)CC1)c1cc(C2CC2)c(OCC2CCCC2)cc1F")
36
>>> endpoint_value("C[C@@H]1CCc2ccccc2N1S(=O)(=O)NC(=O)c1cc(Cl)c(OCC2CCCC2)cc1F (single isomer, unassigned)")
24

In: Looking for the measured IC50 of Cc1ccc(COc2ccc(S(=O)(=O)NC(=O)c3cc(Cl)c(OCC4CCCC4)cc3F)cc2)cc1 , can you help?
Out: 140

In: Further, for O=C(NS(=O)(=O)N1CCC(OC2CNC2)CC1)c1cc(Cl)c(OCC2CCCC2)cc1F ?
Out: 250

In: Further, for O=C(NS(=O)(=O)c1ccc2ccccc2c1)c1cc(Cl)c(OCC2CCCC2)cc1F ?
Out: 760

In: Further, for O=C(NS(=O)(=O)N1CCC(CC2CNC2)CC1)c1cc(Cl)c(OCC2CCCC2)cc1F [Example 40, 2,2,2-trifluoroacetate] ?
Out: 59

In: Further, for CC(=O)N1CCc2cccc(COc3ccc(S(=O)(=O)NC(=O)c4cc(Cl)c(OCC5CCCC5)cc4F)cc3)c2C1 ?
Out: 22

In: Further, for Cn1cc(COc2ccc(S(=O)(=O)NC(=O)c3cc(Cl)c(OCC4CCCC4)cc3F)cc2)cn1 ?
Out: 38

In: Further, for O=C(NS(=O)(=O)c1cnn(-c2ccccc2F)c1)c1cc(Cl)c(OCC2CCCC2)cc1F ?
Out: 940

In: Further, for O=C(NS(=O)(=O)c1ccc(OCc2ccccc2Cl)cc1)c1cc(Cl)c(OCC2CCCC2)cc1F ?
Out: 84

In: Further, for COc1cc(F)c(C(=O)NS(=O)(=O)c2ccc(O[C@H]3CC[C@H](c4cccc(C(F)(F)F)c4)C[C@@H]3N(C)C)cc2F)cc1C1CC1 ?
Out: 5.5

In: Further, for N#Cc1ccc(S(=O)(=O)NC(=O)c2cc(Cl)c(OCC3CCCC3)cc2F)c(F)c1 ?
Out: 210

* * *

# MEASURED_ON: hNaV1.7 (Homo sapiens)
# Construct: expressed in transfected cells
# ASSAY_TEXT: Patch voltage clamp electrophysiology (EP), Syncropatch 384PE, Nav1.7 in CHO cells;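 further: Nav1.7 stably expressed from cDNA in CHO cells, holding potential of −50 mV kept for the entire experiment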
# Assay type: cell-based
# ASSAY_CONDITIONS: hNaV1.7 EP_SP, holding potential −50 mV, inhibition based on 7.5 min compound incubation
Recorded pIC50 by entry
Note on units: pIC50 is unitless, being -log10 of a concentration expressed in mol/L.

Some solved entries appear below for comparison.
>>> endpoint_value("O=C(NS(=O)(=O)N1CC[C@@H]2[C@@H](C1)OCC(=O)N2c1ccccc1)c1cc(Cl)c(OCC2CCCC2)cc1F (single isomer, unassigned)")
6.89
>>> endpoint_value("COc1cc(-c2cccc(C(F)(F)F)c2)c(F)cc1N1C(=O)CO[C@H]2CN(S(=O)(=O)Nc3noc4ccc(C5CC5)cc34)CC[C@@H]21 (single isomer, unassigned)")
6.62

Now let's try a different one.
In: Recall the recorded pIC50 for COc1cc(-c2cccc(C(F)(F)F)c2)c(F)cc1N1C(=O)CO[C@@H]2CN(S(=O)(=O)Nc3noc4ccc(C5CC5)cc34)CC[C@H]21 (single isomer, unassigned) with hNaV1.7 (Homo sapiens) and state it.
Out: 6.96
